test system: Trypanosoma cruzi; assay: Antitrypanosomal activity against Trypanosoma cruzi epimastigotes; type: functional, organism-based
pIC50: −log10 of the molar value.
Binary classification by pIC50, with 5 as an inclusive lower bound for 1; all other cases are -1.

Reference set, count: 3
> print(dat)
                                   compound  class.name
1  CC1(C)CC[C@@H](O)[C@]2(C)O[C@@]3(/C=C/c4ccc(C(=O)NCc5ccccc5)cc4)C=C[C@@]12OO3 (racemic)           1
2       O=C(Cn1ccnc1[N+](=O)[O-])NCc1ccccc1          -1
3  CC(=O)CCCC(C)(C)C(=O)/C=C/C(=O)/C=C/c1ccc(C(=O)NCc2ccccc2)cc1          -1

Does the reported pIC50 for CC1(C)CCC[C@]2(C)O[C@@]3(/C=C/c4ccc(C(=O)NCc5ccccc5)cc4)C=C[C@@]12OO3 (racemic) fall at or above the 5 mark?
1

Does the reported pIC50 for COC(=O)c1ccc(/C=C/[C@]23C=C[C@@]4(OO2)C(C)(C)CCC[C@]4(C)O3)cc1 (racemic) fall at or above the 5 mark?
1

----------
experiment: Selectivity index, ratio of CC50 for African green monkey Vero cells to IC50 for Leishmania donovani promastigotes; format: toxicity; conditions: read-out: Ratio CC50/IC50
// NB: equality with 2 counts as -1; only selectivity ratio strictly below is 1

Reference set, count: 3
> print(dat)
                                   compound  class.name
1  CC1(C)CC[C@H](O)[C@]2(C)O[C@@]3(/C=C/c4ccc(C(=O)NCc5ccccc5)cc4)C=C[C@@]12OO3 (racemic)          -1
2  COC(=O)c1ccc(/C=C/[C@]23C=C[C@@]4(OO2)C(C)(C)CCC[C@]4(C)O3)cc1 (racemic)           1
3  CC1(C)CCC[C@]2(C)O[C@@]3(/C=C/c4ccc(C(=O)NCc5ccccc5)cc4)C=C[C@@]12OO3 (racemic)          -1

Identify whether the compound COC(=O)c1ccc(/C=C/[C@]23C=C[C@@]4(OO2)C(C)(C)CC[C@@H](O)[C@]4(C)O3)cc1 (racemic) records selectivity ratio below 2.
-1

Identify whether the compound CC1(C)CC[C@@H](O)[C@]2(C)O[C@@]3(/C=C/c4ccc(C(=O)NCc5ccccc5)cc4)C=C[C@@]12OO3 (racemic) records selectivity ratio below 2.
1

Identify whether the compound COC(=O)c1ccc(/C=C/[C@]23C=C[C@@]4(OO2)C(C)(C)CCC(OC(C)=O)[C@]4(C)O3)cc1 (mixture of isomers) records selectivity ratio below 2.
1

----------
Measured CC50 of individual entries
assay: Cytotoxicity against African green monkey Vero cells by neutral red assay; assay type: cell-based; details: chlorocebus sabaeus

> print(dat)
                                   molecule   observed
1  COC(=O)c1ccc(/C=C/[C@]23C=C[C@@]4(OO2)C(C)(C)CC[C@@H](O)[C@]4(C)O3)cc1 (racemic)  > 11.1 µM

Supply reported CC50 belonging to this molecule: CC1(C)CC[C@H](O)[C@]2(C)O[C@@]3(/C=C/c4ccc(C(=O)NCc5ccccc5)cc4)C=C[C@@]12OO3 (racemic)
≥ 9.33 µM

Supply reported CC50 belonging to this molecule: CC1(C)CCC[C@]2(C)O[C@@]3(/C=C/c4ccc(C(=O)NCc5ccccc5)cc4)C=C[C@@]12OO3 (racemic)
> 10.7 µM

Supply reported CC50 belonging to this molecule: COC(=O)c1ccc(/C=C/[C@]23C=C[C@@]4(OO2)C(C)(C)CCC[C@]4(C)O3)cc1 (racemic)
> 12.8 µM

----------
tested on: Leishmania donovani; assay: Antileishmanial activity against Leishmania donovani promastigotes; format: functional, organism-based
reported property: pIC50
Lab note — pIC50 values are minus log10 of concentrations in M.

GET pIC50 | system: Leishmania donovani | item: CC1(C)CC[C@@H](O)[C@]2(C)O[C@@]3(/C=C/c4ccc(C(=O)NCc5ccccc5)cc4)C=C[C@@]12OO3 (racemic)
5.12

GET pIC50 | system: Leishmania donovani | item: CC1(C)CCC[C@]2(C)O[C@@]3(/C=C/c4ccc(C(=O)NCc5ccccc5)cc4)C=C[C@@]12OO3 (racemic)
5.61

GET pIC50 | system: Leishmania donovani | item: COC(=O)c1ccc(/C=C/[C@]23C=C[C@@]4(OO2)C(C)(C)CCC[C@]4(C)O3)cc1 (racemic)
5.08

----------
test: Selectivity index, ratio of CC50 for African green monkey Vero cells to IC50 for Trypanosoma cruzi trypomastigotes; type: toxicity; settings: read-out: Ratio CC50/IC50
reported property: selectivity ratio

> print(dat)
                                   molecule  reported.property  observed
1  CC1(C)CCC[C@]2(C)O[C@@]3(/C=C/c4ccc(C(=O)NCc5ccccc5)cc4)C=C[C@@]12OO3 (racemic)  selectivity ratio    ≥ 9.21
2  COC(=O)c1ccc(/C=C/[C@]23C=C[C@@]4(OO2)C(C)(C)CCC[C@]4(C)O3)cc1 (racemic)  selectivity ratio    ≥ 15.3
3  CC1(C)CC[C@@H](O)[C@]2(C)O[C@@]3(/C=C/c4ccc(C(=O)NCc5ccccc5)cc4)C=C[C@@]12OO3 (racemic)  selectivity ratio    ≥ 16.6

Supply reported selectivity ratio belonging to this molecule: "CC(=O)CCCC(C)(C)C(=O)/C=C/C(=O)/C=C/c1ccc(C(=O)NCc2ccccc2)cc1"
≥ 1.05

----------
Measured selectivity ratio of individual entries
experiment: Selectivity index, ratio of CC50 for African green monkey Vero cells to IC50 for Trypanosoma cruzi epimastigotes; type: toxicity; conditions: read-out: Ratio CC50/IC50

The following compounds have reported results that may help.
> print(dat)
                                   compound  observed
1  CC1(C)CCC[C@]2(C)O[C@@]3(/C=C/c4ccc(C(=O)NCc5ccccc5)cc4)C=C[C@@]12OO3 (racemic)     ≥ 4.3
2  CC1(C)CC[C@@H](O)[C@]2(C)O[C@@]3(/C=C/c4ccc(C(=O)NCc5ccccc5)cc4)C=C[C@@]12OO3 (racemic)    ≥ 3.88

Moving on to the next compound.
Supply reported selectivity ratio belonging to this compound: COC(=O)c1ccc(/C=C/[C@]23C=C[C@@]4(OO2)C(C)(C)CCC[C@]4(C)O3)cc1 (racemic)
≥ 5.56

----------
system: Leishmania donovani; test: Antileishmanial activity against Leishmania donovani promastigotes; format: functional, organism-based
reported property: IC50

The following molecules have reported results that may help.
molecule	IC50
CC1(C)CC=C[C@]2(C)O[C@@]3(C)C=C[C@@]12OO3 (racemic)	> 100 µM
CC1(C)CC[C@@H](O)[C@]2(C)O[C@@]3(C)C=C[C@@]12OO3 (racemic)	> 100 µM
CC1(C)CC[C@H](O)[C@]2(C)O[C@@]3(/C=C/c4ccc(C(=O)NCc5ccccc5)cc4)C=C[C@@]12OO3 (racemic)	3.47 µM

Supply reported IC50 belonging to this molecule: CC1(C)CCC(=O)[C@]2(C)O[C@@]3(C)C=C[C@@]12OO3 (racemic)
> 100 µM

Supply reported IC50 belonging to this molecule: CC(=O)O[C@@H]1CCC(C)(C)[C@@]23C=C[C@@](C)(OO2)O[C@@]13C (racemic)
> 100 µM

Supply reported IC50 belonging to this molecule: "CC(=O)CCCC(C)(C)C(=O)/C=C/C(=O)/C=C/c1ccc(C(=O)NCc2ccccc2)cc1"
5.39 µM

Supply reported IC50 belonging to this molecule: CC(=O)O[C@@H]1CCC(C)(C)[C@@]23CC[C@@](C)(OO2)O[C@@]13C (racemic)
> 100 µM

Supply reported IC50 belonging to this molecule: COC(=O)c1ccc(/C=C/[C@]23C=C[C@@]4(OO2)C(C)(C)CCC(OC(C)=O)[C@]4(C)O3)cc1 (mixture of isomers)
7.01 µM

Supply reported IC50 belonging to this molecule: "C[C@@H]1CC[C@H]2[C@@H](C)C(=O)O[C@@H]3O[C@@]4(C)CC[C@@H]1[C@]32OO4"
> 100 µM

----------
tested on: Leishmania donovani; assay: Antileishmanial activity against Leishmania donovani promastigotes; format: functional, organism-based
Measured IC50 of individual entries

compound	observed
C[C@@H]1[C@H](O)[C@@H](C)/C=C/C=C/C=C/C=C/C=C/C=C/C=C/[C@H](O[C@@H]2O[C@H](C)[C@@H](O)[C@H](N)[C@@H]2O)C[C@@H]2O[C@](O)(C[C@@H](O)C[C@@H](O)[C@H](O)CC[C@@H](O)C[C@@H](O)CC(=O)O[C@H]1C)C[C@H](O)[C@H]2C(=O)O	0.19 µM

Supply reported IC50 belonging to this compound: CC1(C)CC[C@@H](O)[C@]2(C)O[C@@]3(C)CC[C@@]12OO3 (racemic)
> 100 µM

Supply reported IC50 belonging to this compound: COC(=O)c1ccc(/C=C/[C@]23C=C[C@@]4(OO2)C(C)(C)CC[C@@H](O)[C@]4(C)O3)cc1 (racemic)
5.18 µM

Supply reported IC50 belonging to this compound: CC1(C)CC=C[C@]2(C)O[C@@]3(C)CC[C@@]12OO3 (racemic)
> 100 µM
